System: NCI-H522
Experiment: NCI tumour cell line growth inhibition, 48 h
Activity calls are given as the source filed them. Cut-off read from the data, not from the text of the source: active = GI50 up to about 1.1 µM and inactive = higher.
READOUT_NAME: GI50

The cases that follow already have their GI50 on record.
CC1=NNC(=O)C1C1C(=O)NN=C(c2c[nH]c3ccccc23)C1Br (stereo not given)    16.4 µM (inactive)
COc1ccc2c(c1)[n+]([O-])c1cc(C#N)ccc1[n+]2[O-]    5.62 µM (inactive)

// moving on: another record for GI50
Answer with the recorded GI50 for the compound listed here: C=C1C(=O)O[C@H]2C(=O)[C@H](C)CCC/C(C)=C/CC[C@@]3(C)O[C@@H]3C[C@@H]12
1.67 µM (inactive)

----------
System: SN12C
Experiment: NCI tumour cell line growth inhibition, 48 h
Calls of active or inactive are those of the source. Cut-off read from the data, not from the text of the source: active = GI50 up to about 1.1 µM and inactive = higher. Starred links: 1 amine or outer side, 2 acyl side, 3 side chain; linkers in the order of their positions; H or OH if unused. Positions of bridges follow the written chain, without caps; N, C: chain ends. Non-standard residues stand in square brackets, D forms with d. Residues, ends and D or L forms follow the SMILES beside them. ξ: configuration not given here. X37 = CC[C@H](C)[C@@H](N[*:1])[C@@H](O)CC(=O)O[C@H](C(=O)[C@H](C)C(=O)[*:2])C(C)C; NMeY = CN[C@@H](Cc1ccc(O)cc1)C(=O)O; dNMeL = CN[C@H](CC(C)C)C(=O)O; ξΔPro = O=C(O)C1C=CCN1
Log the outcome using a class from active, inactive

Cc1ccc(NC(=O)/C(=N\NC(N)=S)C(C#N)c2ccccc2C)cc1C (centres undefined)    inactive
CC(C)(C)OC(=O)N1C(c2cccnc2)=CC[C@H]2C3CC=C(c4cccnc4)[C@@]3(C)CC[C@@H]21 (some centres undefined)    inactive
COc1cccc(N2C(=O)C3c4[nH]c5ccccc5c4C4c5ccccc5CCC4C3C2=O)c1 (centres undefined)    inactive
CC(C)(C)OC(=O)N(CCNS(=O)(=O)c1cccc2cnccc12)CCC(=O)ON1C(=O)CCC1=O    inactive
CC[C@H](C)[C@H]1NC(=O)[C@@H](NC(=O)[C@@H](CC(C)C)N(C)C(=O)C2C=CCN2)[C@@H](C)OC(=O)[C@H](Cc2ccc(OC)cc2)N(C)C(=O)[C@@H]2CCCN2C(=O)[C@H](CC(C)C)NC(=O)[C@@H](C)C(=O)[C@H](C(C)C)OC(=O)C[C@@H]1O (some centres undefined) (H-[ξΔPro][dNMeL]T[X37]LP[NMeY](Me); ester 3-C)    active
Cc1ccc(C)c(NC(=O)CC2C(=O)Nc3ccccc3S2(=O)=O)c1 (centres undefined)    inactive
COC(=O)c1oc([N+](=O)[O-])c(Cl)c1Cl    inactive
O=c1[nH]n(Cc2ccccc2Cl)c2ccccc12    inactive

Next compound, please.
Answer briefly: the call reported for CCOC(=O)c1cccc(/N=N/c2nc[nH]c2/C=C/C(=O)OC)c1 in this assay.
inactive

----------
Tested on: EKVX
Assay: NCI tumour cell line growth inhibition, 48 h
Activity calls are given as the source filed them. Cut-off read from the data, not from the text of the source: active = GI50 up to about 1.1 µM and inactive = higher. Starred links: 1 amine or outer side, 2 acyl side, 3 side chain; linkers in the order of their positions; H or OH if unused. Positions of bridges follow the written chain, without caps; N, C: chain ends. Non-standard residues stand in square brackets, D forms with d. Residues, ends and D or L forms follow the SMILES beside them. ξ: configuration not given here. X37 = CC[C@H](C)[C@@H](N[*:1])[C@@H](O)CC(=O)O[C@H](C(=O)[C@H](C)C(=O)[*:2])C(C)C; NMeY = CN[C@@H](Cc1ccc(O)cc1)C(=O)O; dNMeL = CN[C@H](CC(C)C)C(=O)O; ξΔPro = O=C(O)C1C=CCN1
Log the outcome using a class from true for active, false for inactive

Consider the following illustrative entries.
COc1ccc2c(=O)cc(-c3ccc(OC)c(OC)c3OC)oc2c1    false
CC1C(OC2O[C@@H]3O[C@@]4(C)CC[C@H]5[C@H](C)CC[C@@H](C2C)[C@@]35O4)O[C@@H]2O[C@@]3(C)CC[C@H]4[C@H](C)CC[C@@H]1[C@@]24O3 (stereo partly specified)    false
CCOP(=O)(OCC)/C(C#N)=C/c1c(C)[nH]c2ccccc12    false
CC[C@H](C)[C@H]1NC(=O)[C@@H](NC(=O)[C@@H](CC(C)C)N(C)C(=O)C2C=CCN2)[C@@H](C)OC(=O)[C@H](Cc2ccc(OC)cc2)N(C)C(=O)[C@@H]2CCCN2C(=O)[C@H](CC(C)C)NC(=O)[C@@H](C)C(=O)[C@H](C(C)C)OC(=O)C[C@@H]1O (stereo partly specified) (H-[ξΔPro][dNMeL]T[X37]LP[NMeY](Me); ester 3-C)    true
CCOC(=O)CCC(NC(=O)c1ccc(OCc2nc3cc(C(F)(F)F)ccc3nc2-c2ccccc2)cc1)C(=O)OCC (stereo unspecified)    false

Answer briefly: the call reported for O=C1[C@@H]2[C@@H](c3ccccc3)[C@]2(Cl)C(=O)[C@H]2[C@H](c3ccccc3)[C@@]12Cl in this assay.
false
